target: human CB1 receptors (Homo sapiens); construct: expressed in transfected cells; host or cells: CHO cells; assay: functional cAMP assay, human CB1; type: cell-based; settings: CHO cells expressing human CB1, cAMP; read-out: human CB1 EC50
reported.metric: EC50

molecule `CC(C)(C)c1nc(N2CCC(F)(F)C2)c2nnn(CCc3ccccn3)c2n1` , EC50 observed: 201 nM

molecule CC1CCN(c2nc(C(C)(C)C)nc3c2nnn3Cc2ccccc2Cl)C1 (stereo not shown) , EC50 observed: 1710 nM

molecule `C[C@H](c1ccccc1Cl)n1nnc2c(N3CCC(F)(F)C3)nc(C(C)(C)C)nc21` , EC50 observed: 371 nM

molecule `CC(C)(C)c1nc(N2CC[C@H](O)C2)c2nnn(Cc3nnnn3C3CC3)c2n1` , EC50 observed: > 10000 nM

====

Exercise: for every item that follows, state its recorded EC50.
target: human CB1 receptors (Homo sapiens, UniProt P21554); construct: expressed in transfected cells; host or cells: CHO cells; experiment: functional cAMP assay, human CB1; type: cell-based; details: CHO cells expressing human CB1, cAMP; read-out: human CB1 EC50
Sequence (P21554 whole entry): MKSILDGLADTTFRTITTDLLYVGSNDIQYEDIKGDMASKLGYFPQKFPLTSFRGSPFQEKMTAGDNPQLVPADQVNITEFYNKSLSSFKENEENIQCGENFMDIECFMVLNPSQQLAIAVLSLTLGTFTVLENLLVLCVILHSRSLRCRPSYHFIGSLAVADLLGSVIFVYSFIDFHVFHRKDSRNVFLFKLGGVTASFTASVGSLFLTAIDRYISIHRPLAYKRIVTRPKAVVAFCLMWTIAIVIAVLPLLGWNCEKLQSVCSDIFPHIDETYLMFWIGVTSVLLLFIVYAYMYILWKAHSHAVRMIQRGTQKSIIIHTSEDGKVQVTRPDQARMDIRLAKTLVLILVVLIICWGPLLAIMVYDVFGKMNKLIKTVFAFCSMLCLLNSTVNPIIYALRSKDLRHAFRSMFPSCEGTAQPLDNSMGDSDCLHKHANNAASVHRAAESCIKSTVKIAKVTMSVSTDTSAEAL
Your answer is read as nM, so omit the unit and give the number.

Let me check: CC(C)(C)c1nc(N2CCSCC2)c2nnn(Cc3ccccc3Cl)c2n1 [Example 20] , system human CB1 receptors (Homo sapiens, UniProt P21554), measured EC50 is 346

Let me check: CC(C)(C)c1nc(N2CC[C@](C)(O)C2)c2nnn(Cc3ccccc3C(F)(F)F)c2n1 [Example 222-a] , system human CB1 receptors (Homo sapiens, UniProt P21554), measured EC50 is 894

Let me check: CC(C)(C)c1nc(N2CCC(F)(F)C2)c2nnn(Cc3cccc(F)c3Cl)c2n1 [Example 89] , system human CB1 receptors (Homo sapiens, UniProt P21554), measured EC50 is 463

====

Exercise: for every item that follows, state its recorded pEC50.
molecular target: human CB1 receptors (Homo sapiens, UniProt P21554); construct: expressed in transfected cells; host or cells: CHO cells; experiment: functional cAMP assay, human CB1; assay type: cell-based
pEC50: −log10 of the molar value.

Let me check: C[C@@H]1CN(c2nc(C(C)(C)C)nc3c2nnn3Cc2ccccc2Cl)C[C@H](C)O1 [Example 16] , system human CB1 receptors (Homo sapiens, UniProt P21554), measured pEC50 is < 5.00

Let me check: CC(C)(C)c1nc(N2CCC(c3ccccc3)C2)c2nnn(Cc3ccccc3Cl)c2n1 (stereo not shown) [Example 195] , system human CB1 receptors (Homo sapiens, UniProt P21554), measured pEC50 is < 5.00

Let me check: CC(C)(C)c1nc(NC2CCCCC2)c2nnn(Cc3ccccc3Cl)c2n1 [Example 8] , system human CB1 receptors (Homo sapiens, UniProt P21554), measured pEC50 is < 5.00

Let me check: CCN(C(C)=O)C1CCN(c2nc(C(C)(C)C)nc3c2nnn3Cc2ccccc2Cl)C1 (stereo not shown) [Example 196] , system human CB1 receptors (Homo sapiens, UniProt P21554), measured pEC50 is < 5.00

====

biological target: human CB2 receptors (Homo sapiens, UniProt P34972); construct: expressed in transfected cells; host or cells: CHO cells; test: functional cAMP assay, human CB2; assay type: cell-based; settings: CHO cells expressing human CB2, cAMP; read-out: human CB2 EC50
Sequence (P34972 whole entry): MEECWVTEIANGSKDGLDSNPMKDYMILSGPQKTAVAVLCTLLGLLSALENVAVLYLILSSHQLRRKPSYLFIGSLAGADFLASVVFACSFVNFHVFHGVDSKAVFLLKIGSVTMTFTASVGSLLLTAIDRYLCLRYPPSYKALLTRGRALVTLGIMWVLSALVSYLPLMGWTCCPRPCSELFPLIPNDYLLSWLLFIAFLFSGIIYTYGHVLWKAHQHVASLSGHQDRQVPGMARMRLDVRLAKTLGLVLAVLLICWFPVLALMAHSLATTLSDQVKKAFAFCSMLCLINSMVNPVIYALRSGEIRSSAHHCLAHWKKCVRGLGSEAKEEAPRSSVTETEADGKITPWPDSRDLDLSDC
pEC50: −log10 of the molar value.
Tag: TRUE if measured pEC50 is not below 8, FALSE if it is.

Q: Textbook exercise: given the entry Cn1nccc1C1CCCN1c1nc(C(C)(C)C)nc2c1nnn2Cc1ccccc1Cl (stereo not shown) , state whether its pEC50 is greater than or equal to 8.
Result: FALSE

Q: Textbook exercise: given the entry `Cn1nnnc1Cn1nnc2c(N3CC[C@](C)(O)C3)nc(C(C)(C)C)nc21` , state whether its pEC50 is greater than or equal to 8.
Result: FALSE

Q: Textbook exercise: given the entry `CC(C)(C)c1nc(N2CCC(F)(F)C2)c2nnn(Cc3cccnc3)c2n1` , state whether its pEC50 is greater than or equal to 8.
Result: TRUE

Q: Textbook exercise: given the entry `CC(C)(C)c1nc(N2CCC(F)(F)C2)c2nnn(Cc3cccc(Cl)c3Cl)c2n1` , state whether its pEC50 is greater than or equal to 8.
Result: TRUE

Q: Textbook exercise: given the entry `CC(C)(C)c1nc(N2CCC(F)(F)C2)c2nnn(CCc3ccccc3Cl)c2n1` , state whether its pEC50 is greater than or equal to 8.
Result: TRUE

Q: Textbook exercise: given the entry `CC(C)(C)c1nc(N2CCC(F)(F)C2)c2nnn(Cc3c[nH]nc3C(F)(F)F)c2n1` , state whether its pEC50 is greater than or equal to 8.
Result: TRUE

Q: Textbook exercise: given the entry CC(C)(C)c1nc(N2CCOC(CO)C2)c2nnn(Cc3ccccc3Cl)c2n1 (stereo not shown) , state whether its pEC50 is greater than or equal to 8.
Result: FALSE

Q: Textbook exercise: given the entry `CC(C)(C)c1nc(N2CC[C@H](O)C2)c2nnn(Cc3nnnn3C3CC3)c2n1` , state whether its pEC50 is greater than or equal to 8.
Result: TRUE

Q: Textbook exercise: given the entry `COc1ccc(Cn2nnc3c(N4CCC(F)(F)C4)nc(C(C)(C)C)nc32)cc1` , state whether its pEC50 is greater than or equal to 8.
Result: TRUE

Q: Textbook exercise: given the entry CCN(C(C)=O)C1CCN(c2nc(C(C)(C)C)nc3c2nnn3Cc2ccccc2Cl)C1 (stereo not shown) , state whether its pEC50 is greater than or equal to 8.
Result: FALSE

Q: Textbook exercise: given the entry `CC(C)(C)c1nc(N2CCC(F)(F)C2)c2nnn(CC3CCCCC3)c2n1` , state whether its pEC50 is greater than or equal to 8.
Result: TRUE

Q: Textbook exercise: given the entry `CC(C)(C)c1nc(N2CCC(F)(F)C2)c2nnn(C3COC3)c2n1` , state whether its pEC50 is greater than or equal to 8.
Result: TRUE

Q: Textbook exercise: given the entry `CC(C)(C)c1nc(N2CCC[C@H]2CN)c2nnn(Cc3ccccc3Cl)c2n1` , state whether its pEC50 is greater than or equal to 8.
Result: FALSE

Q: Textbook exercise: given the entry `CC(C)(C)c1nc(N2CCC[C@@H]2C#N)c2nnn(Cc3ccccc3Cl)c2n1` , state whether its pEC50 is greater than or equal to 8.
Result: TRUE

Q: Textbook exercise: given the entry `CC(C)(C)c1nc(N2CCC(F)(F)C2)c2nnn(C3CS(=O)(=O)C3)c2n1` , state whether its pEC50 is greater than or equal to 8.
Result: TRUE

Q: Textbook exercise: given the entry `COc1ccc(Cn2nnc3c(N4CC[C@H](O)[C@@H]4CO)nc(C(C)(C)C)nc32)cc1` , state whether its pEC50 is greater than or equal to 8.
Result: FALSE

Q: Textbook exercise: given the entry `Cc1nnc(Cn2nnc3c(N4CC(F)(F)C(F)(F)C4)nc(C(C)(C)C)nc32)n1C` , state whether its pEC50 is greater than or equal to 8.
Result: TRUE

Q: Textbook exercise: given the entry `Cc1nnc(Cn2nnc3c(N4CC[C@H](O)[C@@H]4CO)nc(C(C)(C)C)nc32)n1C` , state whether its pEC50 is greater than or equal to 8.
Result: FALSE

Q: Textbook exercise: given the entry `COC[C@H]1CCCN1c1nc(C(C)(C)C)nc2c1nnn2Cc1ccccc1Cl` , state whether its pEC50 is greater than or equal to 8.
Result: TRUE

Q: Textbook exercise: given the entry `CC(C)(C)c1nc(N2CCC(F)(F)C2)c2nnn(CCc3cccc(Cl)c3)c2n1` , state whether its pEC50 is greater than or equal to 8.
Result: TRUE

Q: Textbook exercise: given the entry `Cc1nc(Cn2nnc3c(N4CC[C@H](O)C4)nc(C(C)(C)C)nc32)n(C)n1` , state whether its pEC50 is greater than or equal to 8.
Result: FALSE

Q: Textbook exercise: given the entry `CC(C)(C)c1nc(N2CCOCC2)c2nnn(Cc3ccccc3Cl)c2n1` , state whether its pEC50 is greater than or equal to 8.
Result: TRUE

Q: Textbook exercise: given the entry `CC(C)(C)c1nc(N2CCC(F)(F)C2)c2nnn(CC(=O)c3cccnc3)c2n1` , state whether its pEC50 is greater than or equal to 8.
Result: TRUE

Q: Textbook exercise: given the entry `Cc1noc(Cn2nnc3c(N4CC[C@@](C)(O)C4)nc(C(C)(C)C)nc32)n1` , state whether its pEC50 is greater than or equal to 8.
Result: FALSE

Q: Textbook exercise: given the entry `Cc1nonc1Cn1nnc2c(N3CC[C@@](C)(O)C3)nc(C(C)(C)C)nc21` , state whether its pEC50 is greater than or equal to 8.
Result: TRUE

Q: Textbook exercise: given the entry `Cc1noc(Cn2nnc3c(N4CCC(F)(F)C4)nc(C(C)(C)C)nc32)n1` , state whether its pEC50 is greater than or equal to 8.
Result: TRUE

Q: Textbook exercise: given the entry `Cn1nncc1Cn1nnc2c(N3CC[C@H](O)[C@@H]3CO)nc(C(C)(C)C)nc21` , state whether its pEC50 is greater than or equal to 8.
Result: FALSE

Q: Textbook exercise: given the entry `CC(C)(C)c1nc(N2CC[C@@H](O)[C@@H]2CO)c2nnn(Cc3ccccc3Cl)c2n1` , state whether its pEC50 is greater than or equal to 8.
Result: FALSE

Q: Textbook exercise: given the entry `CC(C)(C)c1nc(N2C[C@@H](F)C[C@H]2C#N)c2nnn(Cc3ccccc3Cl)c2n1` , state whether its pEC50 is greater than or equal to 8.
Result: TRUE

Q: Textbook exercise: given the entry `CC1(O)CN(c2nc(C(C)(C)C)nc3c2nnn3Cc2ccccc2Cl)C1` , state whether its pEC50 is greater than or equal to 8.
Result: TRUE

Q: Textbook exercise: given the entry `C[C@@H]1CN(c2nc(C(C)(C)C)nc3c2nnn3Cc2ccccc2Cl)C[C@H](C)O1` , state whether its pEC50 is greater than or equal to 8.
Result: FALSE
